# system-under-test: DRD2 (Homo sapiens, UniProt P14416)
# Construct: purchased Promega (in-house HiBiT-GPCR construct library, NanoBRET)
# Sequence (P14416 whole entry): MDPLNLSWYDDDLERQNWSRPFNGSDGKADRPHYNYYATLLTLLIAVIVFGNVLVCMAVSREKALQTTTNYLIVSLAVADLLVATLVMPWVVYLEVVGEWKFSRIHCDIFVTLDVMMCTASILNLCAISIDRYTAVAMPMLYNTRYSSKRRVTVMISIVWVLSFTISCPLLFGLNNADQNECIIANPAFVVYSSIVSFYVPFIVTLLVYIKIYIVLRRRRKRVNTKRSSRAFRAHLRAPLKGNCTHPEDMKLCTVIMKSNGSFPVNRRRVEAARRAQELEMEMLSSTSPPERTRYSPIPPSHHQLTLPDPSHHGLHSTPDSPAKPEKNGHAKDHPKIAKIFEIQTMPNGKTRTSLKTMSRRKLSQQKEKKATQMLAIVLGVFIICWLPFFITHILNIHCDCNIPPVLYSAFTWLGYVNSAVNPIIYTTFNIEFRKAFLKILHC
# measurement-notes: NanoBRET screen HiBiT-DRD2 in HEK293
# Type: binding
# test-conditions: DRD2; tracer 1μM
observed-property: NanoBRET Fold Response
Please give the numeric answer without any surrounding text.

compound	NanoBRET Fold Response
N#CN=C(NCCCOc1cccc(CN2CCCCC2)c1)NCCNC(=O)CCOCCOCCOCCOCCNC(=O)CCc1ccc2n1[B-](F)(F)[N+]1=C(c3ccc[nH]3)C=CC1=C2	1.22
CC(C)N(CC[C@H](c1ccccc1)c1cc(CCNC(=O)c2ccc(CNC(=O)CCc3ccc4n3[B-](F)(F)[N+]3=C(c5ccc[nH]5)C=CC3=C4)cc2)ccc1O)C(C)C	1.78
CCCn1c(=O)c2[nH]c(-c3ccc(OCC(=O)NCCNC(=O)CCOCCNC(=O)c4ccc(CNC(=O)CCc5ccc6n5[B-](F)(F)[N+]5=C(c7ccc[nH]7)C=CC5=C6)cc4)cc3)nc2n(CCC)c1=O	1.85
O=C(CCOCCOCCOCCOCCNC(=O)CCc1ccc2n1[B-](F)(F)[N+]1=C(c3ccc[nH]3)C=CC1=C2)NCCCN1CCN(C2=Nc3ccccc3Oc3ccc(Cl)cc32)CC1	1.62
Cc1cc2c(s1)Nc1ccccc1N=C2N1CCN(CCCNC(=O)CCOCCOCCOCCOCCNC(=O)CCc2ccc3n2[B-](F)(F)[N+]2=C(c4ccc[nH]4)C=CC2=C3)CC1	2.25

Form field, NanoBRET Fold Response with DRD2 (Homo sapiens, UniProt P14416), item CC(C)N(CC[C@H](c1ccccc1)c1cc(CCNC(=O)CCOCCOCCOCCOCCNC(=O)CCc2ccc3n2[B-](F)(F)[N+]2=C(c4ccc[nH]4)C=CC2=C3)ccc1O)C(C)C : 1.09

Form field, NanoBRET Fold Response with DRD2 (Homo sapiens, UniProt P14416), item COc1ccccc1N1CCN(CCCCN2C(=O)c3ccc(CNC(=O)CCOCCOCCOCCOCCNC(=O)CCc4ccc5n4[B-](F)(F)[N+]4=C(c6ccc[nH]6)C=CC4=C5)cc3C2=O)CC1 : 1.36

Form field, NanoBRET Fold Response with DRD2 (Homo sapiens, UniProt P14416), item Cc1nc2n(c(=O)c1CCN1CCC(c3noc4cc(F)ccc34)CC1)CCCC2OC(=O)NCCOCCOCCOCCOCCNC(=O)CCc1ccc2n1[B-](F)(F)[N+]1=C(c3ccc[nH]3)C=CC1=C2 (centres unmarked) : 2.07

Form field, NanoBRET Fold Response with DRD2 (Homo sapiens, UniProt P14416), item COc1ccccc1N1CCN(CCCCN2C(=O)c3ccc(CNC(=O)CCOCCNC(=O)c4ccc(CNC(=O)CCc5ccc6n5[B-](F)(F)[N+]5=C(c7ccc[nH]7)C=CC5=C6)cc4)cc3C2=O)CC1 : 1.21

Form field, NanoBRET Fold Response with DRD2 (Homo sapiens, UniProt P14416), item O=C(CCc1ccc2n1[B-](F)(F)[N+]1=C(c3ccc[nH]3)C=CC1=C2)NCc1ccc(C(=O)NCCOCCC(=O)N[C@@H]2CC[C@@]3(O)[C@H]4Cc5ccc(O)c6c5[C@@]3(CCN4CC3CC3)[C@H]2O6)cc1 [Naltrexone-3-NB590] : 1.36

Form field, NanoBRET Fold Response with DRD2 (Homo sapiens, UniProt P14416), item O=C(CCc1ccc2n1[B-](F)(F)[N+]1=C(c3ccc[nH]3)C=CC1=C2)NCCOCCOCCNC(=O)OCCOCCN1CCN(C2=Nc3ccccc3Sc3ccccc32)CC1 : 1.76
